Numbers sourced from paper PMC5540273.

system: ERK4; construct: gene MAPK4; conditions: concentration: 1 μM,replicates: in singlicate; n = 1;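 note: KINOMEscan kinase panel screen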
The following compounds are listed with their measured %Inh values.
Use % as the unit, but write only the number.

Recorded results for 5 compounds are shown here.
{"MOL_SMILES": "CCN(CC)CCCCNc1ncc2cc(-c3c(Cl)cccc3Cl)c(NC(=O)NC(C)(C)C)nc2n1", "%Inh [%]": 9}
{"MOL_SMILES": "C=CC(=O)Nc1cc2c(Nc3ccc(F)c(Cl)c3)ncnc2cc1OCCCN1CCOCC1", "%Inh [%]": 0}
{"MOL_SMILES": "Cc1n[nH]c2ccc(-c3cc(OC[C@@H](N)Cc4ccccc4)cnc3-c3ccoc3)cc12.O=C(O)C(F)(F)F.O=C(O)C(F)(F)F", "%Inh [%]": 0}
{"MOL_SMILES": "COc1ccc(C[C@@H](CN)NC(=O)c2cc(Br)c(-c3ccnc4[nH]ccc34)s2)cc1.Cl.Cl", "%Inh [%]": 18}
{"MOL_SMILES": "O=C(NCCNc1ccnc(NCc2ccc(F)cc2)n1)c1cc2ccccc2s1", "%Inh [%]": 13}

Req: Would you kindly share the measured %Inh for CC(C)N1C(=O)Cc2cc(Nc3ncc(C(F)(F)F)c(NCc4cccc(S(C)(=O)=O)c4)n3)ccc21 ?
Resp: 4

Req: Would you kindly share the measured %Inh for C[C@H]1Oc2cc(cnc2N)-c2c(nn(C)c2C#N)CN(C)C(=O)c2ccc(F)cc21 ?
Resp: 0

Req: Would you kindly share the measured %Inh for Cc1cc(C(=O)Nc2ccc(Oc3ccc4nc(NC(=O)C5CC5)cn4n3)cc2)nn1-c1ccccc1 ?
Resp: 18
